Assay: NCI Yeast Anticancer Drug Screen. Data for the bub3 strain (AID 167)
Details: S. cerevisiae bub3 mutant strain, at 50.0 µM
This is part of a sample that, as a whole, favours compounds with a hit. Of some 79,000 tested, about 15% had one in any assay. The source made the active and inactive calls. Rule as the data show it: active = growth inhibition above about 70%; inactive = the rest.
Permitted responses: 1 (active), 0 (inactive)

The examples below pair each entry with its known result.
compound | qualitative.label
CN(C)c1ccc(/C=N/N=C(\C#N)[S][Sn]([Cl])([c]2ccccc2)[c]2ccccc2)cc1 | 1
O=C(O)c1c2c(cc3c1CC1(Cc4cc5c(cc4C1=O)CCC5)C3)CCC2 (stereo unspecified) | 1
COC1(CO)C(=O)N(C)CC(=O)N1C (stereo unspecified) | 1
O=C1Nc2ccccc2/C1=N\N=c1/scc(-c2ccccc2)n1-c1ccccc1 | 0

Tell me the assay call for Cc1ccc(NC(=O)CSC(N)=O)cc1 please. 1

Tell me the assay call for O=C(Nc1ccc(F)c([N+](=O)[O-])c1)NC(Cc1ccccc1)c1ccccc1 (stereo unspecified) please. 1

###

Test: NCI Yeast Anticancer Drug Screen. Data for the bub3 strain (AID 167)
Details: S. cerevisiae bub3 mutant strain, at 50.0 µM
This is part of a sample that, as a whole, favours compounds with a hit. Of some 79,000 tested, about 15% had one in any assay. The source made the active and inactive calls. Rule as the data show it: active = growth inhibition above about 70%; inactive = the rest.
Permitted responses: 1.0 (active), 0.0 (inactive)

Tell me the assay call for COC(=O)c1ccccc1N=NN(C)CC1OC2OC(C)(C)OC2C1OC (configuration not stated) please. 0.0

###

Test: NCI Yeast Anticancer Drug Screen. Data for the sgs1 mgt1 strain (AID 161);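 also: 0% = growth of cultures given vehicle only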
Conditions: S. cerevisiae sgs1 mgt1 strain, at 50.0 µM (retest, dose inferred, filed as 5.0)
Compounds without any hit were thinned out: in the full panel of roughly 79,000, 15% have a hit. The source made the active and inactive calls. Cut-off read from the data, not from the text of the source: active = growth inhibition above about 70%; inactive = the rest.
Permitted responses: active, inactive

compound | qualitative.label
N#Cc1c(Cl)nc2ccccc2c1N=[N+]=[N-] | inactive
CC1CC(C)CC(NC2=NCCO2)C1 (stereo unspecified) | inactive
C[C@]12CC[C@H](O)C[C@@H]1CC[C@@H]1[C@@H]2C(=O)C[C@]2(C)C3=CC(=O)O[C@H]3C[C@@H]12 | active
NNCc1cc(Cl)c2cccnc2c1O | active
O=C(NNc1nc(-c2ccccc2)cs1)Nc1ccccc1 | active

Tell me the assay call for CCC[CH2][Ge]([CH2]CCC)([CH2]CCC)[O]C(C)=O please. inactive

Tell me the assay call for O=C(O)C1CC2C3(Cl)C(Cl)=C(Cl)C(Cl)C2(CC1c1c2ccc(=O)c(O)c-2oc2c(O)c(O)ccc12)C3(Cl)Cl (stereo unspecified) please. active

Tell me the assay call for Cc1ccc(S(=O)(=O)n2c3c(c4ccccc42)CCN2C(=O)C(S(=O)(=O)c4ccccc4)=CCC32)cc1 (stereo unspecified) please. active

Tell me the assay call for CC(=O)O[C@H]1CC[C@H]2[C@@H]3CCc4cc(O)c(I)cc4[C@H]3CC[C@]12C please. active

Tell me the assay call for CCCCCCCC/C=C1\CCC(CN(C)C)C1=O (stereo unspecified) please. active

###

Assay: NCI Yeast Anticancer Drug Screen. Data for the sgs1 mgt1 strain (AID 161);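 also: 0% = growth of cultures given vehicle only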
Conditions: S. cerevisiae sgs1 mgt1 strain, at 50.0 µM (retest, dose inferred, filed as 5.0), hits give high values
This is part of a sample that, as a whole, favours compounds with a hit. Of some 79,000 tested, about 15% had one in any assay. Activity calls are given as the source filed them. No stated cut-off is given here; in the data, active means growth inhibition above about 70%; inactive means the rest.
observable: growth inhibition

molecule | result
C[CH2][Ge]([CH2]C)([CH2]C)[O]C(=O)C([O][Ge]([CH2]C)([CH2]C)[CH2]C)c1ccccc1 (stereo unspecified) | 13% (inactive)

Sample N#CC1C(=O)SC2c3ccccc3C(=O)c3ccccc3C12 (stereo unspecified) — what was its growth inhibition? 5% (inactive)
